Assay: Quantitative High-Throughput drug screen in 47 multiple myeloma cell lines against the NCATS MIPE library collection: MMM1_PLB cell viability assay (AID 1918976); further: nearly all actives have a fitted effect of over 35% in size
Details: MMM1 myeloma cells viability, CellTiter-Glo, 48 h; series mostly up to 45.8 µM
Inconclusive results are not listed. Activity calls are given as the source filed them. The call rests on the fitted dose curve; in most records, active means well fitted cell-killing curve with a large enough effect; inconclusive means small, poorly fitted or top-dose-only effect, or effect the other way; inactive means no such curve, though single readings can be large or run the other way.
Please state which outcome applies, choosing from TRUE for active, FALSE for inactive

For orientation, consider the following solved cases.
compound	qualitative_label
CCOC(=O)Nc1ccc(NCc2ccc(F)cc2)cc1N	FALSE
COCC1(CO)C(=O)C2CCN1CC2 (configuration not stated)	TRUE

Ask: Dear colleague, could you share the recorded outcome for CC(C)[C@]12O[C@@H]1[C@@H]1O[C@]13[C@]1(O[C@H]1C[C@@H]1C4=C(CC[C@@]13C)C(=O)OC4)[C@H]2O when you have a moment?
Result: FALSE

Ask: Dear colleague, could you share the recorded outcome for C[C@]12CC[C@H]3[C@@H](CCC4=CC(=O)CC[C@@]43C)[C@H]1CC[C@H]2OC(=O)CCC1CCCC1 when you have a moment?
Result: TRUE

Ask: Dear colleague, could you share the recorded outcome for CN[C@@H]1Cc2cccc3[nH]c(=O)n(c23)C1 when you have a moment?
Result: TRUE

* * *

Target: Nucleoprotein (Lymphocytic choriomeningitis virus (strain Armstrong)) (UniProt P09992)
Sequence (P09992 whole entry, looked up): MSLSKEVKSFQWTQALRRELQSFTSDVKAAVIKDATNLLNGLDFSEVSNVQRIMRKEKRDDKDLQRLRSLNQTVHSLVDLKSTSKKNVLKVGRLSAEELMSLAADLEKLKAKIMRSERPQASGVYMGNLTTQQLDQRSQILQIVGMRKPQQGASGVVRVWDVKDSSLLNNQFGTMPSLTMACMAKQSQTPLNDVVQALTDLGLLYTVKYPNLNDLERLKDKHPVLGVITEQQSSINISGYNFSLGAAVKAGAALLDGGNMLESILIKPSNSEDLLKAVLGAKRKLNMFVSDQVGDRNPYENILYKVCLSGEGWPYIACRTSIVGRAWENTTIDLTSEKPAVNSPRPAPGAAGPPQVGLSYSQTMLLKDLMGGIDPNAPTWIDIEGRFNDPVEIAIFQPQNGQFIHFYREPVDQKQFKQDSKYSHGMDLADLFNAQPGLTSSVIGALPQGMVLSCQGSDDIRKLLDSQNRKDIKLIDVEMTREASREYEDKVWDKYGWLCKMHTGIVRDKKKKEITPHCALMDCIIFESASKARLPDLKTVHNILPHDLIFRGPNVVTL
Experiment: qHTS for Inhibitors of the Functional Ribonucleoprotein Complex (vRNP) of Lymphocytic Choriomeningitis Arenaviruses (LCMV): LCMV Primary Screen - GLuc reporter signal (AID 1347086); further: nearly all actives have a fitted effect of over 70% in size; further: potency means the concentration at half of the fitted maximal effect
Conditions: LCMV minigenome vRNP cell assay, Gaussia luciferase reporter; series mostly up to 57.5 µM
Records with an inconclusive call do not appear. Activity calls are given as the source filed them. Calls come from the whole dose curve.
readout: Potency

Known Potency results, listed for orientation:
compound	target_of_assay	readout	obs_value
OC[C@H](Cc1ccccc1)Nc1nc(Oc2ccc3c(c2)CCC3)nc2c1ncn2Cc1ccc(-c2ccccc2)cc1	Nucleoprotein (Lymphocytic choriomeningitis virus (strain Armstrong)) (UniProt P09992)	Potency	inactive
CN1CCN(c2c(F)cc3c(=O)c(C(=O)O)cn4c3c2OCN4C)CC1	Nucleoprotein (Lymphocytic choriomeningitis virus (strain Armstrong)) (UniProt P09992)	Potency	inactive
C[C@]12CCC3C(CC[C@H]4C[C@H](O)CC[C@]34C)C1CC[C@@H]2C(=O)CO (stereo partly specified)	Nucleoprotein (Lymphocytic choriomeningitis virus (strain Armstrong)) (UniProt P09992)	Potency	inactive
C=CCn1c(=O)c2cnc(Nc3ccc(N4CCN(C)CC4)cc3)nc2n1-c1cccc(C(C)(C)O)n1	Nucleoprotein (Lymphocytic choriomeningitis virus (strain Armstrong)) (UniProt P09992)	Potency	968 nM (active)
Cc1cnc(Nc2ccc(F)cc2Cl)nc1-c1c[nH]c(C(=O)N[C@H](CO)c2cccc(Cl)c2)c1	Nucleoprotein (Lymphocytic choriomeningitis virus (strain Armstrong)) (UniProt P09992)	Potency	17200 nM (active)
NC(=O)C1CCCc2c1[nH]c1ccc(Cl)cc21 (stereo unspecified)	Nucleoprotein (Lymphocytic choriomeningitis virus (strain Armstrong)) (UniProt P09992)	Potency	inactive
CC[C@@H](C(N)=O)N1CCCC1=O	Nucleoprotein (Lymphocytic choriomeningitis virus (strain Armstrong)) (UniProt P09992)	Potency	inactive
CCCCCC[C@H]1C(=O)O[C@H](C)[C@H](NC(=O)c2cccc(NC=O)c2O)C(=O)O[C@@H](C)[C@@H]1OC(=O)CC(C)C	Nucleoprotein (Lymphocytic choriomeningitis virus (strain Armstrong)) (UniProt P09992)	Potency	1220 nM (active)
Brc1ccccc1-c1ccccc1	Nucleoprotein (Lymphocytic choriomeningitis virus (strain Armstrong)) (UniProt P09992)	Potency	inactive
c1ccc2sc(C3(N4CCCCC4)CCCCC3)cc2c1	Nucleoprotein (Lymphocytic choriomeningitis virus (strain Armstrong)) (UniProt P09992)	Potency	inactive

Ask: Request the reported Potency associated with COC(=O)c1ccc2c(C(=Nc3ccc(N(C)C(=O)CN4CCN(C)CC4)cc3)c3ccccc3)c(O)[nH]c2c1
Result: inactive

Ask: Request the reported Potency associated with Cc1c(CN2CCN(C(=O)C(C)C)CC2)sc2c(N3CCOCC3)nc(-c3cnc(N)nc3)nc12
Result: 217 nM (active)

Ask: Request the reported Potency associated with O=[N+]([O-])c1c(Cl)c(Cl)cc(Cl)c1Cl
Result: inactive

Ask: Request the reported Potency associated with CC(=O)N[C@@H](Cc1ccc(O)cc1)C(=O)O
Result: inactive

Ask: Request the reported Potency associated with CCCCCCCCCC(CC)c1ccc(S(=O)(=O)O)cc1 (stereo unspecified)
Result: inactive

Ask: Request the reported Potency associated with CC(C)C[C@H](NC(=O)CNC(=O)c1cc(Cl)ccc1Cl)B(O)O
Result: 3060 nM (active)

Ask: Request the reported Potency associated with Cn1c(Nc2ccc(C(F)(F)F)cc2)nc2cc(Oc3ccnc(-c4ncc(C(F)(F)F)[nH]4)c3)ccc21
Result: inactive

Ask: Request the reported Potency associated with CC(=O)[C@H]1CCC2C3CC[C@H]4C[C@H](O)CC[C@]4(C)C3CC[C@@]21C (stereo partly specified)
Result: inactive

Ask: Request the reported Potency associated with O=C(C=Cc1cccnc1)NCCCCC1CCN(C(=O)c2ccccc2)CC1
Result: 38.5 nM (active)

Ask: Request the reported Potency associated with O=C(O)Cc1cnc[nH]1
Result: inactive

Ask: Request the reported Potency associated with CC(=O)NCCc1c[nH]c2ccccc12
Result: inactive
